Biological target: CD28 (Homo sapiens, UniProt P10747)
Assay: Flow binding to Jurkat/IL2 reporter cells (CD28)
Design: host or cells: Jurkat cells expressing an IL-2-luciferase reporter
Conditions: Table E19; Jurkats (CD28); 33.3 nM
observable: CD28 MFI at 33.3 nM

| molecule | observable | value.observed |
| --- | --- | --- |
| E35D/M47V/K89N (protein) VIHVTKEVKEVATLSCGHNVSVEELAQTRIYWQKDKKMVLTMMSGDVNIWPEYKNRTIFDITNNLSIVILALRPSDEGTYECVVLKYENDAFKREHLAEVTLSVKAD | CD28 MFI at 33.3 nM | 507 |
| E35D/M47V/N48K/K89N (protein) VIHVTKEVKEVATLSCGHNVSVEELAQTRIYWQKDKKMVLTMMSGDVKIWPEYKNRTIFDITNNLSIVILALRPSDEGTYECVVLKYENDAFKREHLAEVTLSVKAD | CD28 MFI at 33.3 nM | 701 |
| D46V/M47L/L85Q (protein) VIHVTKEVKEVATLSCGHNVSVEELAQTRIYWQKEKKMVLTMMSGVLNIWPEYKNRTIFDITNNLSIVILALRPSDEGTYECVVQKYEKDAFKREHLAEVTLSVKAD | CD28 MFI at 33.3 nM | 567 |
| E35D/D46V/M47L/L85Q (protein) VIHVTKEVKEVATLSCGHNVSVEELAQTRIYWQKDKKMVLTMMSGVLNIWPEYKNRTIFDITNNLSIVILALRPSDEGTYECVVQKYEKDAFKREHLAEVTLSVKAD | CD28 MFI at 33.3 nM | 268 |
| V68M (protein) VIHVTKEVKEVATLSCGHNVSVEELAQTRIYWQKEKKMVLTMMSGDMNIWPEYKNRTIFDITNNLSIMILALRPSDEGTYECVVLKYEKDAFKREHLAEVTLSVKAD | CD28 MFI at 33.3 nM | 37.9 |
| E35D/M47V (protein) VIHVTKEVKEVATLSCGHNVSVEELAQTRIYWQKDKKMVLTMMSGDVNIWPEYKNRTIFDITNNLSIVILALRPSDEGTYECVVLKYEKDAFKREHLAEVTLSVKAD | CD28 MFI at 33.3 nM | 501 |
| L85Q (protein) VIHVTKEVKEVATLSCGHNVSVEELAQTRIYWQKEKKMVLTMMSGDMNIWPEYKNRTIFDITNNLSIVILALRPSDEGTYECVVQKYEKDAFKREHLAEVTLSVKAD | CD28 MFI at 33.3 nM | 35 |
| E35D/K89N (protein) VIHVTKEVKEVATLSCGHNVSVEELAQTRIYWQKDKKMVLTMMSGDMNIWPEYKNRTIFDITNNLSIVILALRPSDEGTYECVVLKYENDAFKREHLAEVTLSVKAD | CD28 MFI at 33.3 nM | 236 |
